Consider the following compounds and their measured red/green cell ratio (normalised) readings.
Assay: differential killing of epithelial or mesenchymal cells, primary screen, imaging, PC-3E GFP, TEM4-18 mCherry, co-culture (AID 1345086);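 also: normalised mesenchymal count divided by normalised epithelial count so high means epithelial killing; cells exposed to compound for 72 h before imaging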
Details: imaging cell counts, at 1 µM, actives lie on both sides, counts scaled to control wells, 1 = unselective
Activity calls are given as the source filed them.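 The calls were made as follows: active = compounds killing one labelled cell type while sparing the other, by normalised counts and ratio limits, not self-fluorescent; inactive = the rest.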
assayEndpoint: red/green cell ratio (normalised)

1. CO/N=C(/C(=O)N[C@@H]1C(=O)N2C(C(=O)O)=C(COC(C)=O)CS[C@H]12)c1csc(N)n1 = 1.18 (inactive)
2. CC1=C(C(=O)O)N2C(=O)[C@@H](NC(=O)[C@H](N)C3=CCC=CC3)C2SC1 (stereo not given in full) = 1 (inactive)
3. CC(C)[N+]1(C)C2CC[C@@H]1CC(OC(=O)C(CO)c1ccccc1)C2 (stereo not given in full) = 0.61 (inactive)
4. C=C(C)[C@@H]1CC[C@]2(C)CC[C@]3(C)[C@@H](CCC4[C@@]5(C)CC[C@H](O)C(C)(C)C5CC[C@]43C)C12 (stereo not given in full) = 1.12 (inactive)
5. CC1=CC(=O)C2C(C)(C)CCC[C@]2(C)[C@@]1(O)CCc1ccoc1 (stereo not given in full) = 1.02 (inactive)
6. O=c1cc(-c2ccccc2)oc2cc(O)ccc12 = 0.8 (inactive)
7. COC(=O)[C@@]12Oc3ccc(-c4ccc5c(c4O)C(O)=C4C(=O)C[C@H](C)[C@H](O)[C@]4(C(=O)OC)O5)c(O)c3C(O)=C1C(=O)C[C@H](C)[C@@H]2O = 1.15 (inactive)
8. C[C@]12CCC3c4ccc(O)cc4C[C@@H](CCCCCCCCCS(=O)CCCC(F)(F)C(F)(F)F)C3C1CC[C@@H]2O (stereo not given in full) = 1.23 (inactive)
9. CO[C@@]1(NC(=O)CSCC#N)C(=O)N2C(C(=O)O)=C(CSc3nnnn3C)CSC21 (stereo not given in full) = 0.89 (inactive)
10. S=c1ccss1 = 1.04 (inactive)
